test system: SNB-75; assay: NCI tumour cell line growth inhibition, 48 h
The source made the active and inactive calls. Rule as the data show it: active = GI50 up to about 1.1 µM and inactive = higher.
measure: GI50

Take a look at these entries with their results.
Can you look up GI50 on SNB-75 for C/C=C/CC(C)[C@@H](O)[C@H](NC)C(=O)O (stereo partly specified) ? > 100 µM (inactive)

Report GI50 for Nc1cn(C2OC(CC(c3ccccc3)(c3ccccc3)c3ccccc3)C(O)C2O)c(=O)[nH]c1=O (stereo unspecified) tested on SNB-75. > 100 µM (inactive)

Request body: readout GI50, system SNB-75, query COc1ccc(C(C)NNC(=O)c2cc[n+]([BH2-]C#N)cc2)cc1F (stereo unspecified) . Return the value. > 100 µM (inactive)

Kindly state the measured GI50 obtained for COC(=O)c1c(OC(C)=O)ccc2c1c1cc3ccccc3c(OC(C)=O)c1n2C with SNB-75. 4.67 µM (inactive)

Recorded GI50 for O=C1Nc2cc([N+](=O)[O-])ccc2C(=O)N2CCC[C@@H]12 with SNB-75, please? > 100 µM (inactive)

Now for the compound whose GI50 we want.
Item: COc1ccc(OC)c(/C=C(/C#N)c2ccccc2)c1 Test system: SNB-75 Read-out: GI50 Value: ? 10.8 µM (inactive)

---

tested on: XF498; experiment: NCI tumour cell line growth inhibition, 48 h
The source made the active and inactive calls. Rule as the data show it: active = GI50 up to about 1.1 µM and inactive = higher.
GI50 listing for selected compounds.

Which GI50 value belongs to O=c1oc2ccccc2c(O)c1C(C/C(CCN1CCCC1)=N/O)c1ccccc1 (stereo not given) ? > 100 µM (inactive)

Fill in the blank: the reported GI50 of Sc1nnc(COc2ccc(Cl)cc2Cl)[nH]1 is ____. > 100 µM (inactive)

Others:
Data request, read-out GI50, for O=C(/C=N/O)Nc1ccc(Cl)c(I)c1 21.6 µM (inactive)

May I ask what GI50 has been recorded for Cc1cc(C)nc(NS(=O)(=O)c2ccc(NC(=O)c3cccc4c(Nc5ccc(S(=O)(=O)Nc6nc(C)cc(C)n6)cc5)c5ccccc5nc34)cc2)n1 ? 33.6 µM (inactive)

Which measured GI50 value corresponds to c1ccc2c(c1)[nH]c1c2nc2ncccn21 ? > 100 µM (inactive)

---

system: TK-10; assay: NCI tumour cell line growth inhibition, 48 h
Calls of active or inactive are those of the source. No stated cut-off is given here; in the data, active = GI50 up to about 1.1 µM and inactive = higher.
measure: GI50

Could you share which GI50 value was measured for COc1cc(/C=C2/C(=O)N(C(=O)c3ccccc3O)N=C2C)ccc1O ? 5.4 µM (inactive)

More entries:
Give its GI50 value. Item: COC(=O)C(CCSC)NC(=O)CNC(=O)CSc1nnc(COc2ccc(Cl)cc2)n1-c1ccccc1 (stereo unspecified) 17.6 µM (inactive)

Query (compound): N#CC(c1nc2ccccc2s1)c1ncnc(Cl)c1[N+](=O)[O-] (stereo unspecified) ; field requested: GI50 34.3 µM (inactive)

---

tested on: RPMI-8226; assay: NCI tumour cell line growth inhibition, 48 h
Activity calls are given as the source filed them. No stated cut-off is given here; in the data, active = GI50 up to about 1.1 µM and inactive = higher.
measure: GI50

I'd like to know its GI50. The compound in question is Cc1ccc(C(=O)c2[nH]c(NCc3ccccc3)c(C(=S)Nc3ccccc3)c2N)cc1 2.15 µM (inactive)

What does the data say about its GI50? Entry: Fc1ccc(F)c(C2SCc3nc4ccccc4n32)c1 (centres undefined) 40 µM (inactive)

Any idea what its GI50 is? The compound is Nc1ccccc1C(=O)CCC1C(=O)NC(=S)NC1=O > 100 µM (inactive)

Next item in the queue.
Quick one: GI50 of O=C(Nc1ccc(Cl)cc1Cl)C1C(=O)N(c2ccc(Cl)cc2Cl)C(=O)/C1=N\Nc1ccc([N+](=O)[O-])cc1[N+](=O)[O-] (centres undefined) ? 22.7 µM (inactive)

---

Measured GI50 by item
tested on: DMS-273; test: NCI tumour cell line growth inhibition, 48 h
The source made the active and inactive calls. Rule as the data show it: active = GI50 up to about 1.1 µM and inactive = higher.

Record request: GI50 value, item O=C(CCN1CCN(c2cccc(Cl)c2)CC1)N1CCc2c([nH]c3ccccc23)C1c1cccnc1 (stereo not given) 8.28 µM (inactive)

Please look up its GI50: CCOC(=O)/C(=C\c1ccccc1)C(=O)CCN1CCOCC1 10.4 µM (inactive)

Quick check: GI50 of Cc1ccc(S(=O)(=O)OC2CSSCC2OS(=O)(=O)c2ccc(C)cc2)cc1 (stereo not given) ? 10.1 µM (inactive)

Would you kindly share the measured GI50 for O=[N+]([O-])c1ccccc1S(=O)(=O)c1ccccc1 ? > 100 µM (inactive)

Look at this compound and give its reported GI50. N=C(N)SCCc1cn2ccccc2n1 > 100 µM (inactive)

---

test system: RPMI-8226; assay: NCI tumour cell line growth inhibition, 48 h
Activity calls are given as the source filed them. No stated cut-off is given here; in the data, active = GI50 up to about 1.1 µM and inactive = higher. Residues, ends and D or L forms follow the SMILES beside them. *: point of attachment. Boc = CC(C)(C)OC(=O)*; OBn = c1ccc(CO*)cc1; Bn = c1ccc(C*)cc1
Give your call using only these classes: active, inactive

The following compounds have reported results that may help.
Recorded test call requested for O=C1NC(=O)C2C(=O)NC(=O)C1C2Cc1ccco1 (configuration not stated) inactive

# fetch the recorded call for CSC1(SC)CCCCCCCCCCC1 here inactive

Outcome? CCN(CC)Cc1ccccc1CC(=O)N1c2ccccc2C(=O)Nc2cccnc21 inactive

GET /call?item= N#CCCN(CCC#N)C(=O)c1cccc(C(=O)N(CCC#N)CCC#N)c1 returns the recorded outcome of this test. inactive

What classification did CCOC(=O)c1cccc(/N=N/c2ncc(/C=C/C(=O)OC)[nH]2)c1 end up with in this test? inactive

Just curious, what result did CC(C)CC(NC(=O)C(Cc1ccccc1)NC(=O)C(COCc1ccccc1)NC(=O)OC(C)(C)C)C(=O)OCc1ccccc1 (stereo not drawn) (Boc-Ser(Bn)-Phe-Leu-OBn; configuration not given here) get here? inactive

Could you check what this test reported for COc1cc(C2c3cc4c(cc3OC(C)(N3CCCC3)C2C)OCO4)cc(OC)c1OC (configuration not stated) ? active

State the result this test recorded for COc1ccc(CNc2nc(NCc3ccc(OC)cc3)nc(Nc3ccccc3)n2)cc1 . inactive

---
Please state the recorded outcome for this compound: O=C(O)CCCNc1ncc2c(n1)-c1ccccc1OC2 inactive

# outcome recorded in this test, key = COC(=O)CCC(=O)Nc1ccc(Cl)cc1C active

Assay result, entry O=C1C(Cl)=C(N2CCN(CCOCCO)CC2)C(=O)c2ccccc21 — outcome? inactive

Answer briefly: the call reported for CC(=O)C1=C(O)C(N)C2Cc3c(c(O)c4c(O)c(C)ccc4c3C)C(=O)C2(O)C1=O (configuration not stated) in this assay. inactive

Kindly provide the recorded test outcome for the following compound: CCN(CC)CCC(=O)c1ccccc1 inactive

---

Readings of GI50 for the listed molecules
tested on: IGROV-1; test: NCI tumour cell line growth inhibition, 48 h
The source made the active and inactive calls. Rule as the data show it: active = GI50 up to about 1.1 µM and inactive = higher.

Answered examples (3):
Return GI50 measured with IGROV-1 given this molecule: COC(=O)[C@H](Cc1c[nH]c2ccccc12)NC(=O)c1ccc(CNC(=O)/C=C/c2cccc(Oc3ccccc3)c2)cc1 > 100 µM (inactive)

Under IGROV-1: GI50 value of C=C1CC/C=C(\C)CCC[C@H](C)[C@@H](O)[C@@H]2OC(=O)C(=C)[C@@H]2C[C@H]1O ? 3.88 µM (inactive)

Notebook entry, IGROV-1 assay: GI50 of Cc1cc(C)nc(NS(=O)(=O)c2ccc(NC(=O)c3cccc4c(Nc5ccc(S(=O)(=O)Nc6nc(C)cc(C)n6)cc5)c5ccccc5nc34)cc2)n1 = ? 32.8 µM (inactive)

More entries:
# query: GI50 | item c1csc(-c2ccsc2-c2cccs2)c1 | system: IGROV-1 > 100 µM (inactive)

Fill in the recorded GI50 for this molecule, with IGROV-1 as test system: Cc1ncc(CSc2ccccc2N)c(CO)c1O > 100 µM (inactive)

So what GI50 did CN(C)C(=S)/N=c1\ssc(=S)n1Cc1ccco1 get with IGROV-1? 11.1 µM (inactive)

Under IGROV-1: GI50 value of O/N=C1\CC2(N3CCOCC3)CCC1(c1ccccc1)CC2 ? > 100 µM (inactive)

Form entry - test system: IGROV-1; read-out: GI50; molecule: C=C(C)[C@@H]1CC[C@]2(C(=O)O)CC[C@]3(C)[C@H](CC[C@@H]4[C@@]5(C)CC(=O)C(C)(C)[C@@H]5CC[C@]43C)[C@@H]12 9.86 µM (inactive)

# query: GI50 | item N#CC1C(=O)N(c2ccccc2)NC12OC(=O)c1ccncc12 (centres undefined) | system: IGROV-1 > 20 µM (inactive)

---

test system: MDA-MB-231; test: NCI tumour cell line growth inhibition, 48 h
The source made the active and inactive calls. Rule as the data show it: active = GI50 up to about 1.1 µM and inactive = higher.
Entries annotated with measured GI50

Example cases with answers are listed next.
# value lookup — system MDA-MB-231, readout GI50, item Cc1ccc(NC(=O)/C(Cc2nc3ccc([N+](=O)[O-])cc3nc2O)=N\NC(=O)C[n+]2ccccc2)c(C)c1 18.4 µM (inactive)

Request - read-out GI50 | tested on MDA-MB-231 | molecule CCOC(=O)C1=C(C(=O)c2ccc(C)cc2)C(c2cccc([N+](=O)[O-])c2)C(C(=O)c2ccc(C)cc2)=C(C(=O)OCC)N1 13.9 µM (inactive)

Form field: GI50 recorded for CN(C)CC[N+](C)(C)[BH2-]C(O)O with MDA-MB-231 (enter value) > 100 µM (inactive)

Missing value: GI50, MDA-MB-231, entry COc1cc(C2c3cc4c(cc3OC(C)(N3CCCC3)C2C)OCO4)cc(OC)c1OC (stereo not given) . Fill in? 0.551 µM (active)

Requested read-out GI50, target or system MDA-MB-231, entry COC(=O)C(=O)CC(=O)c1cccc(OC)c1 > 100 µM (inactive)

Lab note: next molecule to report on.
Test system MDA-MB-231; read-out GI50; what value for Cc1c(C)c(S(=O)(=O)N(CCCN)OCCCN)c(C)c2c1OC(C)(C)CC2 ? 4.63 µM (inactive)
